targetEntity: EGFR del746-750 T790M (Homo sapiens, UniProt P00533, DEL746-750/T790M)
Sequence (P00533 with tags, fused parts or gaps DEL746-750/T790M limits assumed): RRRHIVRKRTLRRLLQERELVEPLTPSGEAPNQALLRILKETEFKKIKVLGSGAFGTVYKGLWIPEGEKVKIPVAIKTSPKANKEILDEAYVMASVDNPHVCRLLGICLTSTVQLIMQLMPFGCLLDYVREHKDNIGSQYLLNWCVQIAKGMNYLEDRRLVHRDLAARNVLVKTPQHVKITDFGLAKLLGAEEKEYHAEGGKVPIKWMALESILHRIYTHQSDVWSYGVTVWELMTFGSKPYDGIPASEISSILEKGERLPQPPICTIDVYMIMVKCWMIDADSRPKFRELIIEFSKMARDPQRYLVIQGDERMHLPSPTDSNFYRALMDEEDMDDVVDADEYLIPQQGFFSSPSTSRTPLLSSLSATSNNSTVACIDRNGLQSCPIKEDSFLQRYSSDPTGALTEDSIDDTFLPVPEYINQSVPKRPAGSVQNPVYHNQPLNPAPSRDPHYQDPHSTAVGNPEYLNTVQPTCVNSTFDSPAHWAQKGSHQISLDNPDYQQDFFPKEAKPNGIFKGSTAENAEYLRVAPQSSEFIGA
assayProcedure: EGFR del746-750 T790M biochemical assay (Caliper mobility shift)
measurementConditions: 5 μM ATP; apparent Ki (Morrison fit) converted by Cheng-Prusoff, Km of ATP 2.1 μM; read-out: EGFR(T790M/d746-750) Ki
Assignment: determine reported log10 of Ki for the given compounds.
# values: log10(Ki), units nM

{"compound": "C[C@@H](n1nc(N2CC[C@@H](O)C2)c2cnc(Nc3ccnc(N4CC[C@](C)(O)[C@H](F)C4)n3)cc21)C(F)(F)F (racemic)", "log10 of Ki": 0.79}
{"compound": "CC1CCC(C)N1c1nn(C(C)C)c2cc(Nc3ccnc(-c4cnn(S(=O)(=O)C5CC5)c4)n3)ncc12 (stereo not shown)", "log10 of Ki": 1.31}
{"compound": "CCC(C)n1nc(N2CC3(COC3)C2)c2cnc(Nc3ccnc(N4CCC(C)(O)CC4)n3)cc21 (stereo not shown)", "log10 of Ki": 0.68}

Fill in log10 of Ki for each of the 4 compounds listed.
1. CC[C@@H](C)n1nc(N2CC3(COC3)C2)c2cnc(Nc3ccnc(N4CC[C@@](C)(O)[C@@H](F)C4)n3)cc21 (single isomer, unassigned)
2. CC[C@H](C)n1nc(N2CC[C@H](O)C2)c2cnc(Nc3ccnc(N4CC[C@](C)(O)[C@H](F)C4)n3)cc21 (relative stereo)
3. CCC(C)n1nc(N2CCNC2=O)c2cnc(Nc3ccnc(NCC(C)(C)S(C)(=O)=O)n3)cc21 (racemic)
4. CCC(C)n1nc(N2C[C@H](O)[C@@H](F)C2)c2cnc(Nc3ccnc(N4CCC(C)(O)CC4)n3)cc21 (relative stereo)

[1.01, 0.36, 0.38, 0.67]

Dear colleague, could you send me log10 of Ki for each of the items below? Thanks.
1. CC(C)n1nc(NC(=O)C(C)(C)O)c2cnc(Nc3ccnc(-c4cnn(S(=O)(=O)C5CC5)c4)n3)cc21
2. CC(C)n1nc(N2CCNC2=O)c2cnc(Nc3ccnc(N4CCC(O)C(F)C4)n3)cc21 (racemic)
3. C[C@H](n1nc(N2CC[C@@H](O)C2)c2cnc(Nc3ccnc(N4CC[C@H](O)[C@H](F)C4)n3)cc21)C(F)(F)F (relative stereo)
4. C[C@@H](n1nc(N2CC[C@@H](O)C2)c2cnc(Nc3ccnc(N4CC[C@H](O)[C@H](F)C4)n3)cc21)C(F)(F)F (relative stereo)
5. CC(C)n1nc(N2CCC2)c2cnc(Nc3ccnc(-c4cnn(S(=O)(=O)C5CC5)c4)n3)cc21

0.30
1.31
0.43
0.49
-0.30

Look up log10 of Ki for this compound: CC(C)n1nc(N2CCC(C)(C(N)=O)C2)c2cnc(Nc3ccnc(N4CCC(C)(O)CC4)n3)cc21 (stereo not shown) 0.69

###

targetEntity: phosphor-EGFR in H1975(L585R/T790M) mutant EGFR expressing cells (Homo sapiens, UniProt P00533, L858R/T790M)
Sequence (P00533 25-1210 T790M/L858R): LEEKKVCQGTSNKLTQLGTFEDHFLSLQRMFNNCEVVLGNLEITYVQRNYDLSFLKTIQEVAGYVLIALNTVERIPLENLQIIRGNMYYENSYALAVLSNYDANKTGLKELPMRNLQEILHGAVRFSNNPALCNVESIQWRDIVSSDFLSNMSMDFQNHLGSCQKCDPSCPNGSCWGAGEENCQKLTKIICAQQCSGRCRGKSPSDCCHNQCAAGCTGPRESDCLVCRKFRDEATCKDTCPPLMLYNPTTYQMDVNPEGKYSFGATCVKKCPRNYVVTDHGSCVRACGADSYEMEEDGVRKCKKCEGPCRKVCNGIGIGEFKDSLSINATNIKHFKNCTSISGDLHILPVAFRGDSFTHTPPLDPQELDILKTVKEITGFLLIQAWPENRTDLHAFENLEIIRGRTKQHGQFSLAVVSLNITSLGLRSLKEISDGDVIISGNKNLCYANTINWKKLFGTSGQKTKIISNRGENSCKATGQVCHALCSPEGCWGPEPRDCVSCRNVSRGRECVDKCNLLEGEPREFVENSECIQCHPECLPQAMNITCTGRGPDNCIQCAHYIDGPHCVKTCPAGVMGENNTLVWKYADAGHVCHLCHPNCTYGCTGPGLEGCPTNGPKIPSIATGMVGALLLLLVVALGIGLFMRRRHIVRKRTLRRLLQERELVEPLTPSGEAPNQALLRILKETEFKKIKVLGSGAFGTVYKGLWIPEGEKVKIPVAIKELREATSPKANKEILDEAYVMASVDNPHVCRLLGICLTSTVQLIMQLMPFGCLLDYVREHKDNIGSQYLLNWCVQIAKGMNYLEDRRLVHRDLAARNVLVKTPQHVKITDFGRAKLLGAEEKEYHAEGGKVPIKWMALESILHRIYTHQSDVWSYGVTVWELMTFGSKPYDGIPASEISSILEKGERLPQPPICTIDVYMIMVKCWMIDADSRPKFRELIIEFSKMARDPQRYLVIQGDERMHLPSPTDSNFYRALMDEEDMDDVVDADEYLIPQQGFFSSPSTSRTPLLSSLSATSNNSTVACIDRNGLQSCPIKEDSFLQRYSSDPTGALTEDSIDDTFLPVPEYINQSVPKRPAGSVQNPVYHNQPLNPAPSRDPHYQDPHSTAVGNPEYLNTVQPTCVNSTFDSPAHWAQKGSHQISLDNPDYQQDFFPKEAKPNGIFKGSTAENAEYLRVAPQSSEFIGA
assayProcedure: H1975 pEGFR MSD cellular assay
measurementConditions: NCI-H1975 cells, serum starved, 1 hour compound incubation, pEGFR Tyr1068 MSD; read-out: HI975 pEGFR EC50
Kindly apply the following: Yes if EC50 is less than 200 nM, No in every other case.

{"compound": "CC(n1nc(N2CC3(COC3)C2)c2cnc(Nc3ccnc(N4CCC(C)(O)CC4)n3)cc21)C(F)(F)F (centres unmarked)", "classLabel": "No"}

Please indicate whether the reported EC50 of CC(C)n1nc(N2CC[C@@H](CO)C2)c2cnc(Nc3ccnc(-c4cnn(S(=O)(=O)C5CC5)c4)n3)cc21 is strictly below 200 nM. Yes

Check CC(C)Nc1nn(C(C)C)c2cc(Nc3ccnc(-c4cnn(S(=O)(=O)C5CC5)c4)n3)ncc12 too. Yes

What do you get for CCC(C)n1nc(N2CC3(COC3)C2)c2cnc(Nc3ccnc(N4CC[C@@H](O)[C@@H](F)C4)n3)cc21 (single isomer, unassigned) [Example 197] ? Yes

And the next one, CC(C)n1nc(N2CC[C@@H](O)C2)c2cnc(Nc3ccnc(-c4cnn(S(=O)(=O)C5CC5)c4)n3)cc21 ? Yes

Again, but for Cc1cn[nH]c1-c1nn(C(C)C)c2cc(Nc3ccnc(N4CCC(O)C(C)(C)C4)n3)ncc12 (centres unmarked) No

Same read-out for CC(C)n1ncc2cnc(Nc3ccnc(N4CCC(O)C(C)(C)C4)n3)cc21 (centres unmarked) ? No

Repeat with CC(C)n1nc(N2CCN(C)C2=O)c2cnc(Nc3ccnc(N4CCC(O)C(F)C4)n3)cc21 (centres unmarked) No

CCC(C)n1nc(N2C[C@@H](F)[C@@H](N)C2)c2cnc(Nc3ccnc(N4CCC(C)(O)CC4)n3)cc21 (relative stereo) ? Yes

Another compound to look at: CC(C)n1nc(N2CC(O)C(F)(F)C2)c2cnc(Nc3ccnc(N4CCC(C)(O)CC4)n3)cc21 (centres unmarked) No

Now give it for CCC(C)n1nc(N2CC[C@@H](O)C2)c2cnc(Nc3ccnc(N4CCC(CC#N)(OC)CC4)n3)cc21 (mixture of isomers) too. No
